- Substrate: CCCCCCCCCC(=O)Oc1ccc([N+](=O)[O-])cc1
- Procedure summary: pNP ester hydrolysis, Lineweaver-Burk
- Format: biochemical, Bacillus sp. L2
- Particulars: 70 °C (optimum temperature), 0.6-5.0 mM substrate

Protein: wt-L2 lipase (Bacillus sp. L2; A36V) (protein, recombinant from pET32(B)+ in E. coli BL21(DE3), Ni Sepharose purified) ASLRANDVPIVLLHGFTGWGREEMFGFKYWGGVRGDIEQWLNDNGYRTYTLAVGPLSSNWDRACEAYAQLVGGTVDYGAAHAAKHGHARFGRTYPGLLPELKRGGRIHIIAHSQGGQTARMLVSLLENGSQEEREYAKAHNVSLSPLFEGGHHFVLSVTTIATPHDGTTLVNMVDFTDRFFDLQKAVLEAAAVASNVPYTSQVYDFKLDQWGLRRQPGESFDHYFERLKRSPVWTSTDTARYDLSVSGAEKLNQWVQASPNTYYLSFSTERTYRGALTGNHYPELGMNAFSAVVCAPFLGSYRNPTLGIDDRWLENDGIVNTVSMNGPKRGSSDRIVPYDGTLKKGVWNDMGTYNVDHLEIIGVDPNPSFDIRAFYLRLAEQLASLLP
kcat/Km: 207000 M⁻¹ s⁻¹

Protein: wt-L2 lipase (Bacillus sp. L2; A36E) (protein, recombinant from pET32(B)+ in E. coli BL21(DE3), Ni Sepharose purified) ASLRANDEPIVLLHGFTGWGREEMFGFKYWGGVRGDIEQWLNDNGYRTYTLAVGPLSSNWDRACEAYAQLVGGTVDYGAAHAAKHGHARFGRTYPGLLPELKRGGRIHIIAHSQGGQTARMLVSLLENGSQEEREYAKAHNVSLSPLFEGGHHFVLSVTTIATPHDGTTLVNMVDFTDRFFDLQKAVLEAAAVASNVPYTSQVYDFKLDQWGLRRQPGESFDHYFERLKRSPVWTSTDTARYDLSVSGAEKLNQWVQASPNTYYLSFSTERTYRGALTGNHYPELGMNAFSAVVCAPFLGSYRNPTLGIDDRWLENDGIVNTVSMNGPKRGSSDRIVPYDGTLKKGVWNDMGTYNVDHLEIIGVDPNPSFDIRAFYLRLAEQLASLLP
kcat/Km: 27200 M⁻¹ s⁻¹

Protein: wt-L2 lipase (Bacillus sp. L2) (protein, recombinant from pET32(B)+ in E. coli BL21(DE3), Ni Sepharose purified) ASLRANDAPIVLLHGFTGWGREEMFGFKYWGGVRGDIEQWLNDNGYRTYTLAVGPLSSNWDRACEAYAQLVGGTVDYGAAHAAKHGHARFGRTYPGLLPELKRGGRIHIIAHSQGGQTARMLVSLLENGSQEEREYAKAHNVSLSPLFEGGHHFVLSVTTIATPHDGTTLVNMVDFTDRFFDLQKAVLEAAAVASNVPYTSQVYDFKLDQWGLRRQPGESFDHYFERLKRSPVWTSTDTARYDLSVSGAEKLNQWVQASPNTYYLSFSTERTYRGALTGNHYPELGMNAFSAVVCAPFLGSYRNPTLGIDDRWLENDGIVNTVSMNGPKRGSSDRIVPYDGTLKKGVWNDMGTYNVDHLEIIGVDPNPSFDIRAFYLRLAEQLASLLP
kcat/Km: 162000 M⁻¹ s⁻¹

Origin of the recorded values: paper PMC7435863
